Let's go through some IC50 measurements on purified human HDAC6 (Homo sapiens, UniProt Q9UBN7) together.
Sequence (Q9UBN7 whole entry): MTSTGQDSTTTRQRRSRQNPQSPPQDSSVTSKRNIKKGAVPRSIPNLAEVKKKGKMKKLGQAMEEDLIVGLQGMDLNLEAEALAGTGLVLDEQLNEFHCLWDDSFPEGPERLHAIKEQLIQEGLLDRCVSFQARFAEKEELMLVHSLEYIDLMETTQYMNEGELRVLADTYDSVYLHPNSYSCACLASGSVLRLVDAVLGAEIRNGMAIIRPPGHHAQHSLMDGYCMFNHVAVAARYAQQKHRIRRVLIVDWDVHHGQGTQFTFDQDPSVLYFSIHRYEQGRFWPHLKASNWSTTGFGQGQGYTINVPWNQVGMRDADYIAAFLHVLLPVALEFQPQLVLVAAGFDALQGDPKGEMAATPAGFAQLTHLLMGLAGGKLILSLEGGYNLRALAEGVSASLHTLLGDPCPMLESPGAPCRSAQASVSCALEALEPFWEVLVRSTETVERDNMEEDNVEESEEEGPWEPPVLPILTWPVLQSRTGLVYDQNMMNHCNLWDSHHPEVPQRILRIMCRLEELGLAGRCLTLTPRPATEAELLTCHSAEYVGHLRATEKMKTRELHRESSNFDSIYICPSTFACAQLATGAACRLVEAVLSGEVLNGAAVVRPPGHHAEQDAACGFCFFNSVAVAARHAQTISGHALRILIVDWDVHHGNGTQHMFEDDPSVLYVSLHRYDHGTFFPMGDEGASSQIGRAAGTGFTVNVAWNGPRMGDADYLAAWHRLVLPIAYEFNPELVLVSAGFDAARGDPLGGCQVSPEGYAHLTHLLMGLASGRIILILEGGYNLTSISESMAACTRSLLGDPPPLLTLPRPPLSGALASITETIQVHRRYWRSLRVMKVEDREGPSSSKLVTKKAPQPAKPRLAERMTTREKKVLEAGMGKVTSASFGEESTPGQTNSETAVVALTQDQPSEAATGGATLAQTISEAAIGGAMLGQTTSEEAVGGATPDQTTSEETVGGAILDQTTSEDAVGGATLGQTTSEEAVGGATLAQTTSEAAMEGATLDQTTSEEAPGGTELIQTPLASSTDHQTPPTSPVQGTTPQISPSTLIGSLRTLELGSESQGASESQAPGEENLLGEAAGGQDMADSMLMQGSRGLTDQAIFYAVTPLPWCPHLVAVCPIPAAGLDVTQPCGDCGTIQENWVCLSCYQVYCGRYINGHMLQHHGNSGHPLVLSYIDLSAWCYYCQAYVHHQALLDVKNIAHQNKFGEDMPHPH

Reported IC50 for purified human HDAC6 (Homo sapiens, UniProt Q9UBN7), given O=C(NO)c1ccc2c(c1)CCN(C(=O)c1ccc(C(F)(F)F)cc1)CC2 [Compound 87] ?
100 to 500 nM

Reported IC50 for purified human HDAC6 (Homo sapiens, UniProt Q9UBN7), given Cc1cc(C(=O)N2CCCc3cc(C(=O)NO)ccc3C2)no1 [Compound 245] ?
100 to 500 nM

Reported IC50 for purified human HDAC6 (Homo sapiens, UniProt Q9UBN7), given O=C(NO)c1ccc2c(c1)CCN(S(=O)(=O)CC(c1ccccc1)c1ccccc1)C2 [Compound 56] ?
100 to 500 nM

Reported IC50 for purified human HDAC6 (Homo sapiens, UniProt Q9UBN7), given CC(C)c1ccc(NC(=O)N2CCc3cc(C(=O)NO)ccc3C2)cc1 [Compound 104] ?
< 50 nM

Reported IC50 for purified human HDAC6 (Homo sapiens, UniProt Q9UBN7), given O=C(NO)c1ccc2c(c1)CCCN(C(=O)c1ccc(-c3ccccc3)cc1)C2 [Compound 244] ?
100 to 500 nM

Reported IC50 for purified human HDAC6 (Homo sapiens, UniProt Q9UBN7), given Cn1cccc1C(=O)N1Cc2ccc(C(=O)NO)cc2C1 [Compound 78] ?
< 50 nM

Reported IC50 for purified human HDAC6 (Homo sapiens, UniProt Q9UBN7), given Cc1nc(S(=O)(=O)N2CCc3cc(C(=O)NO)ccc3C2)cn1C [Compound 51] ?
100 to 500 nM

Reported IC50 for purified human HDAC6 (Homo sapiens, UniProt Q9UBN7), given CCCCS(=O)(=O)N1CCc2cc(C(=O)NO)ccc2C1 [Compound 38] ?
50 to 100 nM

Reported IC50 for purified human HDAC6 (Homo sapiens, UniProt Q9UBN7), given Cn1cccc1C(=O)N1CCc2ccc(C(=O)NO)cc2CC1 [Compound 86] ?
100 to 500 nM

Reported IC50 for purified human HDAC6 (Homo sapiens, UniProt Q9UBN7), given CC(C)(C)C(=O)N1Cc2ccc(C(=O)NO)cc2C1 [Compound 81] ?
50 to 100 nM

Reported IC50 for purified human HDAC6 (Homo sapiens, UniProt Q9UBN7), given O=C(NO)c1ccc2c(c1)CCN(C(=O)C1CCCCCC1)C2 [Compound 22] ?
50 to 100 nM

Reported IC50 for purified human HDAC6 (Homo sapiens, UniProt Q9UBN7), given O=C(NO)c1ccc2c(c1)CCCN(C(=O)C13CC4CC(CC(C4)C1)C3)C2 [Compound 232] ?
100 to 500 nM

Reported IC50 for purified human HDAC6 (Homo sapiens, UniProt Q9UBN7), given O=C(NO)c1ccc2c(c1)CCN(Cc1ccc(OC(F)(F)F)cc1)C2 [Compound 61] ?
100 to 500 nM

Reported IC50 for purified human HDAC6 (Homo sapiens, UniProt Q9UBN7), given CCC(C)NC(=O)N1CCc2cc(C(=O)NO)ccc2C1 (stereo not drawn) [Compound 93] ?
< 50 nM

Reported IC50 for purified human HDAC6 (Homo sapiens, UniProt Q9UBN7), given O=C(NO)c1ccc2c(c1)CCN(C(=O)Nc1cccc(C(F)(F)F)c1)C2 [Compound 98] ?
< 50 nM

Reported IC50 for purified human HDAC6 (Homo sapiens, UniProt Q9UBN7), given O=C(NO)c1ccc2c(c1)CCN(C(=O)NCCc1ccccc1)C2 [Compound 91] ?
< 50 nM

Reported IC50 for purified human HDAC6 (Homo sapiens, UniProt Q9UBN7), given O=C(NO)c1ccc2c(c1)CCN(c1nc(-c3ccc4c(c3)OCCO4)cs1)C2 [Compound 75] ?
< 50 nM

Reported IC50 for purified human HDAC6 (Homo sapiens, UniProt Q9UBN7), given O=C(NO)c1ccc2c(c1)CCN(C(=O)C13CC4CC(CC(C4)C1)C3)C2 [Compound 33] ?
< 50 nM

----------
Let's go through some IC50 measurements on purified human HDAC6 (Homo sapiens) together.

Look up IC50 for this molecule: O=C(NO)c1ccc2c(c1)CCN(C(=O)CCn1ccc3ccccc31)C2 [Compound 13]
> 500 nM

Look up IC50 for this molecule: Cc1nc(CC(=O)N2CCc3cc(C(=O)NO)ccc3C2)cs1 [Compound 6]
100 to 500 nM

Look up IC50 for this molecule: O=C(NO)c1ccc2c(c1)CCN(C(=O)c1cnn(-c3ccccc3)c1)C2 [Compound 7]
< 50 nM

Look up IC50 for this molecule: O=C(NO)c1ccc2c(c1)CCCN(C(=O)c1cc3cc(Cl)ccc3[nH]1)C2 [Compound 240]
< 50 nM

Look up IC50 for this molecule: CC(C)CC(=O)N1CCc2cc(C(=O)NO)ccc2C1 [Compound 9]
50 to 100 nM

Look up IC50 for this molecule: CC(=O)N1CCC(C(=O)N2CCc3cc(C(=O)NO)ccc3C2)CC1 [Compound 36]
100 to 500 nM

Look up IC50 for this molecule: CCc1cccc(C)c1NC(=O)N1CCc2cc(C(=O)NO)ccc2C1 [Compound 94]
< 50 nM
